Data origin: paper PMC11676285

Substrate: COC(=O)[C@@H]1[C@H](C(=O)OC)N(Cc2ccccc2)C(=O)N1Cc1ccccc1
Assay: HPLC of biotin monomethyl ester, Michaelis-Menten fit
Assay type: biochemical, Microbacterium aurantiacum
Details: pH 8.0, 0.05 M PBS, 30 °C, substrate 0.1 to 10 mM
Source text: HPLC of biotin monomethyl ester, Michaelis-Menten fit on […]01
readout name: Km (µM)
Supply the numeric figure in µM, leaving out any unit text.

Take a look at these entries with their results.
EstSIT01 (Microbacterium aurantiacum) (protein) MTLFDGITSRIVDTDRLTVNILERAADDPQTPPDRTVVFVHGNVSSALFWQEIMQDLPSDLRAIAVDLRGFGGSEHAPVDATRGVRDFSDDLHATLEALDIPVAHLVGWSMGGGVVMQYALDHPVLSLTLQSPVSPYGFGGTRRDGSRLTDDDAGCGGGGANPDFIQRLIDHDTSDDAQTSPRSVFRAGYVASDYTTDHEDVWVESMLTTSTADGNYPGDAVPSDNWPGFAAGRHGVLNTMAPQYFDVSGIVDLAEKPPILWIHGTADAIVSDASFYDLNYLGQLGIVPGWPGEDVAPAQEMVSQTRDVLGRYAAGGGTVTEVAVEGAGHSAHLERPAVFRHALLEIIGYVGAAADPAPPTEAIIIRSAD; 150
EstSIT01 (Microbacterium aurantiacum; E301P/G215A/G293A) (protein) MTLFDGITSRIVDTDRLTVNILERAADDPQTPPDRTVVFVHGNVSSALFWQEIMQDLPSDLRAIAVDLRGFGGSEHAPVDATRGVRDFSDDLHATLEALDIPVAHLVGWSMGGGVVMQYALDHPVLSLTLQSPVSPYGFGGTRRDGSRLTDDDAGCGGGGANPDFIQRLIDHDTSDDAQTSPRSVFRAGYVASDYTTDHEDVWVESMLTTSTADANYPGDAVPSDNWPGFAAGRHGVLNTMAPQYFDVSGIVDLAEKPPILWIHGTADAIVSDASFYDLNYLGQLGIVPGWPAEDVAPAQPMVSQTRDVLGRYAAGGGTVTEVAVEGAGHSAHLERPAVFRHALLEIIGYVGAAADPAPPTEAIIIRSAD; 180
EstSIT01 (Microbacterium aurantiacum; E301P/G215A) (protein) MTLFDGITSRIVDTDRLTVNILERAADDPQTPPDRTVVFVHGNVSSALFWQEIMQDLPSDLRAIAVDLRGFGGSEHAPVDATRGVRDFSDDLHATLEALDIPVAHLVGWSMGGGVVMQYALDHPVLSLTLQSPVSPYGFGGTRRDGSRLTDDDAGCGGGGANPDFIQRLIDHDTSDDAQTSPRSVFRAGYVASDYTTDHEDVWVESMLTTSTADANYPGDAVPSDNWPGFAAGRHGVLNTMAPQYFDVSGIVDLAEKPPILWIHGTADAIVSDASFYDLNYLGQLGIVPGWPGEDVAPAQPMVSQTRDVLGRYAAGGGTVTEVAVEGAGHSAHLERPAVFRHALLEIIGYVGAAADPAPPTEAIIIRSAD; 210

Turning now to a further record.
stdin: What value of Km has been recorded for this entry: EstSIT01 (Microbacterium aurantiacum; E301P) (protein) MTLFDGITSRIVDTDRLTVNILERAADDPQTPPDRTVVFVHGNVSSALFWQEIMQDLPSDLRAIAVDLRGFGGSEHAPVDATRGVRDFSDDLHATLEALDIPVAHLVGWSMGGGVVMQYALDHPVLSLTLQSPVSPYGFGGTRRDGSRLTDDDAGCGGGGANPDFIQRLIDHDTSDDAQTSPRSVFRAGYVASDYTTDHEDVWVESMLTTSTADGNYPGDAVPSDNWPGFAAGRHGVLNTMAPQYFDVSGIVDLAEKPPILWIHGTADAIVSDASFYDLNYLGQLGIVPGWPGEDVAPAQPMVSQTRDVLGRYAAGGGTVTEVAVEGAGHSAHLERPAVFRHALLEIIGYVGAAADPAPPTEAIIIRSAD
stdout: 220
